- ASSAY_NAME: protein stability index of a GFP-peptide fusion (GPS, HEK-293T) (PSI 1-6); higher = more stable;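 further: 24-mer peptide tiles fused after GFP, lentivirally expressed, FACS-sorted into six equal bins by GFP/DsRed ratio, decoded by Illumina sequencing, PSI is the read-weighted mean bin number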
- COND: treatment: MLN4924 1 uM, 8 h; c terminus: a fixed tail appended
The threshold is inclusive: protein stability index of exactly 3 counts as true; values below receive false.

| ENTRY_SEQUENCE | GROUP |
| --- | --- |
| KSVLIPVYGVSKETFLSFLEYLYT [RHOBTB3] | false |
| QEMQQKLVELSAENEKLHQRVEQL [CEBPD] | true |
| HAAQGGPLLCPGCQGQPQGKAVVS [ELOA2] | true |
| VLDELTLARADLEMQIENLKEELA [KRT17] | true |
| TEEQTRQERQGPAKPEVLSIQWPG [NECAB1] | true |
| FNYLHTNCFEITLELSCDKFPPEE [CPN1] | false |
| RRHRLGGVGAVPGPGTPTGPSLPS [ZBTB22] | true |
| SATALYRTDYSGRGELSARQMHLA [RAD51] | true |

Determine whether measured protein stability index meets or exceeds 3 for PPELTASRQSFRMAMGNPSEFFVD [DVL3]
true

Please indicate if the recorded protein stability index for HNCQLHRISFCADDKTDKRIFTFI [GULP1] meets or exceeds 3.
false

Is the recorded value of protein stability index equal to or greater than 3 for this sequence? QDIDLGAGREVFDYSHRQKEQDVE [NFE2L1]
true

---

- ASSAY_NAME: protein stability index of a GFP-peptide fusion (GPS, HEK-293T) (PSI 1-6); higher = more stable
- COND: treatment: MLN4924 1 uM, 8 h; c terminus: a fixed tail appended
Lab note: anything with protein stability index at or over 3 counts as True; the rest go in False.

| ENTRY_SEQUENCE | GROUP |
| --- | --- |
| APLTISRVHAGSKAALAALCPGDL [PDLIM4] | True |
| DSDVPEQRDSKCKVKWTHEEDEQL [MYBL2] | True |
| KELRKDYQGPGTRRLQEVLGVQTG [DYRK1B] | True |
| KCLLYCNGVLEPLYLCPNGARCAT [SLC25A39] | False |
| EPASAREAPASVVPFVRVKREREV [USP39] | True |
| SMEGVRWAFSCGTWLPSRAEWLLA [AASDHPPT] | False |
| TLNVIELNVQKTVDYTGQAKAQVR [STX11] | True |
| SMEIYGSAVADKLDNSRSILKRRY [CTDNEP1] | True |
| YLLDYPNNLLSAPPPDVTQLTPPS [ANKRD17] | True |
| LSTKKSPCAGSTSLSHSPGCSSTQ [LCOR] | True |

Is the recorded value of protein stability index equal to or greater than 3 for this sequence? ARVTGELTMTFPAGIVRVFSGTPP [FCHO1]
False

Textbook exercise: given the entry STNGEKTKSPCESNNKKNDEMQEV [SPANXN3] , state whether its protein stability index is greater than or equal to 3.
True

Is protein stability index at least 3? Consider FHIFRTLEVNRLMGKLLQQPNTYA [PKD2L1]
False

Is protein stability index for RRGWRPSSREDSLEAGLPLQVRGY [CHGA] at or above 3?
True

---

Measured protein stability index, listed per entry.
- ASSAY_NAME: protein stability index of a GFP-peptide fusion (GPS, HEK-293T) (PSI 1-6); higher = more stable
- COND: treatment: DMSO; c terminus: a fixed tail appended
Please respond with just the number, no unit label.

Field: example entries. Status: answers known.
| ENTRY_SEQUENCE | REPORTED |
| --- | --- |
| LFVLELEWVLSTGQDKQFAWHCSE [WDFY2] | 2.99 |
| SVVNVGCGPAEERVLLTGLHAVAD [YPEL3] | 3 |
| FHNCLIQLYCEKVQGLMKEYLLSF [VPS39] | 2.96 |
| LFVTFLLIYMVTIMGNLLIIVTIM [OR4A15] | 3.06 |

Now let's try a different one.
Field protein stability index (entry VTFKLDDGAISAHKPLLICSCEWM [RHOBTB1] ) reads 3.08

---

- ASSAY_NAME: protein stability index of a GFP-peptide fusion (GPS, HEK-293T) (PSI 1-6); higher = more stable
- COND: treatment: MLN4924 1 uM, 8 h; c terminus: a fixed tail appended
# key: entry, value: protein stability index
// response body must contain only the number

Answered cases to consult:
| ENTRY_SEQUENCE | protein stability index |
| --- | --- |
| IYVVGGYSWNNRCMVEIVQKYDPD [KLHL13] | 2.91 |
| ERLLAVAERYGLSGSDVLDNVAYA [RAD51] | 2.95 |

Turning now to a further sequence:
The recorded protein stability index for entry VRPGTPPDFILKVVIDKHPVRFFV [CTDNEP1] equals 2.92

---

- ASSAY_NAME: protein stability index of a GFP-peptide fusion (GPS, HEK-293T) (PSI 1-6); higher = more stable
- COND: treatment: DMSO; c terminus: a fixed tail appended
ENDPOINT_NAME: protein stability index
Just the number.

GET /value?item= IDEQDSYIQSRADTMQNIESTIVE [STX5] &field=protein stability index returns 5.23

Lab note: NKTEVTPRLWTTCRDGEVLLRLSK [ACSBG2] gave protein stability index of 2.4

Query ERDALEAVFRFWAGGEKGPQAFPM [DNAAF3] yields protein stability index of 2.5

Field protein stability index (entry GGPAQNAPHQQPPAPPSDALLDLH [TFE3] ) reads 5.06

Short answer for FFPMGDEGASSQIGRAAGTGFTVN [HDAC6] : protein stability index was 3.46

response.value for TVEKDESHAGKVVLRSWYEKNKHI [FAM50A] (field: protein stability index) = 3.74

Form: sequence = EAVTCGNTEVPARNLYAYIQKLTQ [PTPRD] ; protein stability index = 2.81

The sequence identified as RIHVLPSLNPDGYEKAYEGGSELG [CPXM2] registered its protein stability index at 3.93

Item: SEKETMQFLNDRLASYLEKVRQLE [KRT33B] | protein stability index: 2.55

Looking up LNIVERYDPKENKWTRVASMSTRR [KLHL20] , I found its protein stability index recorded as 3.31

Sample MGWEGPNSRVDDTFWASWRAFAQI [MIR22HG] ; protein stability index observed: 2.45

LSLVLGNVNVTLLSKQAKFAYKDE [TMEM120A] yielded protein stability index of 2.59

protein stability index in this record for FHKQQWFNCIRAAIAPFQSAGSPP [NET1] : 2.69

Measured protein stability index, YAVLAAEPELQVGIDIMKTSFPGR [AASDHPPT] : 2.61

Value of measured protein stability index for the entry LVLSEDRKSVRYTRQKKNLPDSPL [TRIM15] : 3.48

The reported protein stability index of the sequence DQNTVVTRQLSEENANLQEYVEKE [MTUS2] was 5.41

sequence PRRFTFYPCVLATEGFTSGRHYWE [TRIM39] , protein stability index observed: 2.31

Lab note: measured protein stability index of IENNKYGWFWVCPGGGDICMYRHA [ZC3H15] was 2.52

---

- ASSAY_NAME: protein stability index of a GFP-peptide fusion (GPS, HEK-293T) (PSI 1-6); higher = more stable
- COND: treatment: DMSO; c terminus: a fixed tail appended
ENDPOINT_NAME: protein stability index

Solved entries (count: 2):
| ENTRY_SEQUENCE | protein stability index |
| --- | --- |
| TCIDMDWKVLTWLRYTLWIPLYPL [HACD3] | 3.08 |
| ETYKMEFMYSGVENKQVVIIHHMR [INTS4] | 2.72 |

sequence TITLNCPRNSDMKNQGEENGFPDS [EDARADD] , protein stability index observed: 4.11

For reference, reported protein stability index for KLSCLFAGPHSTLTPPCSPPEDGL [SNX8] stands at 3.25

The sequence listed as SRSYSPRRSRGSPRYSPRHSRSRS [SRSF1] shows protein stability index equal to 5.39

# protein stability index (sequence: TRLEQEIATYRSLLEGQDAKMAGI [KRT15] ) is 3.7

Per the record, YVRPERLSPISHGNTIALFFRSLL [TCF25] has protein stability index of 2.59

---

Listed below: protein stability index values for each entry.
- ASSAY_NAME: protein stability index of a GFP-peptide fusion (GPS, HEK-293T) (PSI 1-6); higher = more stable
- COND: treatment: MLN4924 1 uM, 8 h; c terminus: a fixed tail appended
// print number alone

| ENTRY_SEQUENCE | protein stability index |
| --- | --- |
| SLPRDRVLGFLIENFKGLAIPYLE [VPS39] | 2.92 |
| DDLMGILCKSVLEIERAIKQTQCP [FEM1C] | 2.46 |
| TRAILRERICSEEERAKAKHLARQ [CHCHD3] | 3.76 |
| GWSKGFIGMHREMQVNPISKRMGP [RHOBTB1] | 2.61 |

The measured protein stability index associated with LVVMAPSPSESSETVLALVNCISP [DENND6A] reads 2.15

# protein stability index of KLSCLFAGPHSTLTPPCSPPEDGL [SNX8] = 3.19

Lookup result for TMDGEGTLFQTESPQSGSILTEET [PBXIP1] ; measured protein stability index: 5.43
